Test system: Plasmodium berghei
Assay: Change in mean survival time for control (average 6.2 days) versus treated mice (Mus musculus) 72 hrs after 640 mg/kg subcutaneous dose
Type: functional
recorded-metric: Delta MST (days)
Answers are plain numbers, in days.

Please review the following examples before continuing.
{"molecule": "CC(C)CNCc1cc(Nc2ccnc3cc(Cl)ccc23)cc(-c2ccc(Cl)cc2)c1O", "target-or-system": "Plasmodium berghei", "recorded-metric": "Delta MST", "endpoint-value": 13.4}
{"molecule": "CCCCN(CCCC)Cc1cc(Nc2ccnc3cc(Cl)ccc23)cc(-c2ccc(Cl)cc2)c1O", "target-or-system": "Plasmodium berghei", "recorded-metric": "Delta MST", "endpoint-value": 34.4}
{"molecule": "Oc1c(CN2CCCC2)cc(Nc2ccnc3cc(Cl)ccc23)cc1-c1ccc(Cl)c(Cl)c1", "target-or-system": "Plasmodium berghei", "recorded-metric": "Delta MST", "endpoint-value": 33.9}
{"molecule": "CCN(CC)Cc1cc(Nc2ccnc3cc(Cl)ccc23)cc(-c2ccc(C(F)(F)F)cc2)c1O", "target-or-system": "Plasmodium berghei", "recorded-metric": "Delta MST", "endpoint-value": 17}
{"molecule": "CCN(CC)Cc1cc(Nc2ccnc3cc(Cl)ccc23)cc(-c2cccc(Cl)c2)c1O", "target-or-system": "Plasmodium berghei", "recorded-metric": "Delta MST", "endpoint-value": 21.9}
{"molecule": "CCN(CC)Cc1cc(Nc2ccnc3cc(Cl)ccc23)cc(-c2cc(OC)ccc2OC)c1O", "target-or-system": "Plasmodium berghei", "recorded-metric": "Delta MST", "endpoint-value": 8.6}

Batch: Delta MST for all items listed.
1. CCN(CC)Cc1cc(Nc2ccnc3cc(Cl)ccc23)cc(-c2ccccn2)c1O
2. Oc1c(CNC2CCCCC2)cc(Nc2ccnc3cc(Cl)ccc23)cc1-c1ccc(Cl)cc1
3. CCN(CC)Cc1cc(Nc2ccnc3cc(Cl)ccc23)cc(-c2cccc3ccccc23)c1O
4. CC(C)(C)NCc1cc(Nc2ccnc3cc(Cl)ccc23)cc(-c2ccccc2)c1O

[25.3, 17.6, 8.1, 13]

Batch: Delta MST for all items listed.
1. CN(C)Cc1cc(Nc2ccnc3cc(Cl)ccc23)cc(-c2ccc(Cl)cc2)c1O
2. CC(C)(C)NCc1cc(Nc2ccnc3cc(Cl)ccc23)cc(-c2ccc(Cl)c(Cl)c2)c1O
3. CCN(CC)Cc1cc(Nc2ccnc3cc(Cl)ccc23)cc(-c2ccc(Cl)cc2)c1O [TEBAQUINE]
4. CCN(CC)Cc1cc(Nc2ccnc3cc(Cl)ccc23)cc(-c2ccncc2)c1O
5. CCN(CC)Cc1cc(Nc2ccnc3cc(Cl)ccc23)cc(-c2ccc(F)cc2)c1O

1: 18.7; 2: 16.4; 3: 11.9; 4: 25; 5: 14.8
